meta.source: ChEMBL document CHEMBL1130702

tested on: NCI-H522; assay: Compound was tested for cytotoxicity against NCI-H522 (lung tumor)cell line; format: functional, cell-based; settings: Homo sapiens
ASSAY METRIC: pEC50
When answering, recall that pEC50 equals minus log10 of the concentration in mol/L, and write that number alone.

Param readout = pEC50; param system = NCI-H522; param query = CC1=CC(=O)C[C@]2(C)CC[C@@H](C(C)CC(=O)CC(C)C)C[C@@H]12 (stereo partly specified) ; response: value
5.32
